Quick reference: BI of the listed items.
system-under-test: DFNB31-1 (Homo sapiens, UniProt Q9P202)
Sequence (Q9P202 140-223): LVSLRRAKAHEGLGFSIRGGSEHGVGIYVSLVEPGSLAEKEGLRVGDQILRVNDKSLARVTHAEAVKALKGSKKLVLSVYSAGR
procedure-summary: Holdup assay, DFNB31-1
Type: binding
*1 amine or outer side, *2 acyl side, *3 side chain or, on linkers, in order; H or OH if unused. Where a SMILES comes first, the peptide text is derived from it. The star is where a group is joined. X1 = O=C(CCCC[C@@H]1SC[C@@H]2NC(=O)N[C@@H]21)NCCCOCCOCCOCCCN*; Suc = O=C(CCC(=O)[*:2])[*:1]
attribute-measured: BI

• CC[C@H](C)[C@H](NC(=O)[C@H](CCC(N)=O)NC(=O)[C@@H](NC(=O)[C@H](Cc1c[nH]cn1)NC(=O)[C@H](CCC(N)=O)NC(=O)[C@H](CC(=O)O)NC(=O)[C@H](CCC(=O)O)NC(=O)[C@H](CC(=O)O)NC(=O)CCC(=O)NCCCOCCOCCOCCCNC(=O)CCCC[C@@H]1SC[C@@H]2NC(=O)N[C@@H]21)[C@@H](C)O)C(=O)N[C@H](C(=O)N[C@@H](CCCCNC(C)=O)C(=O)N[C@H](C(=O)O)C(C)C)[C@@H](C)O = 0.09
• CC[C@H](C)[C@H](NC(=O)[C@H](CCC(N)=O)NC(=O)[C@@H](NC(=O)[C@H](Cc1c[nH]cn1)NC(=O)[C@H](CCC(N)=O)NC(=O)[C@H](CC(=O)O)NC(=O)[C@H](CCC(=O)O)NC(=O)[C@H](CC(=O)O)NC(=O)[C@H](Cc1ccccc1)NC(=O)[C@@H]1CCCN1C(=O)CCC(=O)NCCCOCCOCCOCCCNC(=O)CCCC[C@@H]1SC[C@@H]2NC(=O)N[C@@H]21)[C@@H](C)O)C(=O)N[C@H](C(=O)N[C@@H](CCCCN)C(=O)N[C@H](C(=O)O)C(C)C)[C@@H](C)O [PTEN_13] ({X1-Suc}-PFDEDQHTQITKV-OH) = 0.145
• CC[C@H](C)[C@H](NC(=O)[C@H](CCC(N)=O)NC(=O)[C@@H](NC(=O)[C@H](Cc1c[nH]cn1)NC(=O)[C@H](CCC(N)=O)NC(=O)[C@H](CC(=O)O)NC(=O)[C@H](CCC(=O)O)NC(=O)[C@H](CC(=O)O)NC(=O)CCC(=O)NCCCOCCOCCOCCCNC(=O)CCCC[C@@H]1SC[C@@H]2NC(=O)N[C@@H]21)[C@@H](C)O)C(=O)N[C@H](C(=O)N[C@@H](CCCNC(=N)N)C(=O)N[C@H](C(=O)O)C(C)C)[C@@H](C)O [PTEN_KR] ({X1-Suc}-DEDQHTQITRV-OH) = 0.118

###

Test system: DLG5-2
procedure-summary: Holdup assay, DLG5-2
Type: binding, human
*1 amine or outer side, *2 acyl side, *3 side chain or, on linkers, in order; H or OH if unused. Where a SMILES comes first, the peptide text is derived from it. The star is where a group is joined. X1 = O=C(CCCC[C@@H]1SC[C@@H]2NC(=O)N[C@@H]21)NCCCOCCOCCOCCCN*; Suc = O=C(CCC(=O)[*:2])[*:1]
attribute-measured: BI

- CC[C@H](C)[C@H](NC(=O)[C@H](CCC(N)=O)NC(=O)[C@@H](NC(=O)[C@H](Cc1c[nH]cn1)NC(=O)[C@H](CCC(N)=O)NC(=O)[C@H](CC(=O)O)NC(=O)[C@H](CCC(=O)O)NC(=O)[C@H](CC(=O)O)NC(=O)CCC(=O)NCCCOCCOCCOCCCNC(=O)CCCC[C@@H]1SC[C@@H]2NC(=O)N[C@@H]21)[C@@H](C)O)C(=O)N[C@H](C(=O)N[C@@H](CCCNC(=N)N)C(=O)N[C@H](C(=O)O)C(C)C)[C@@H](C)O [PTEN_KR] ({X1-Suc}-DEDQHTQITRV-OH): -0.028
- CC[C@H](C)[C@H](NC(=O)[C@H](CCC(N)=O)NC(=O)[C@@H](NC(=O)[C@H](Cc1c[nH]cn1)NC(=O)[C@H](CCC(N)=O)NC(=O)[C@H](CC(=O)O)NC(=O)[C@H](CCC(=O)O)NC(=O)[C@H](CC(=O)O)NC(=O)CCC(=O)NCCCOCCOCCOCCCNC(=O)CCCC[C@@H]1SC[C@@H]2NC(=O)N[C@@H]21)[C@@H](C)O)C(=O)N[C@H](C(=O)N[C@@H](CCCCN)C(=O)N[C@H](C(=O)O)C(C)C)[C@@H](C)O [PTEN_11]: 0.001
- CC[C@H](C)[C@H](NC(=O)[C@H](CCC(N)=O)NC(=O)[C@@H](NC(=O)[C@H](Cc1c[nH]cn1)NC(=O)[C@H](CCC(N)=O)NC(=O)[C@H](CC(=O)O)NC(=O)[C@H](CCC(=O)O)NC(=O)[C@H](CC(=O)O)NC(=O)CCC(=O)NCCCOCCOCCOCCCNC(=O)CCCC[C@@H]1SC[C@@H]2NC(=O)N[C@@H]21)[C@@H](C)O)C(=O)N[C@H](C(=O)N[C@@H](CCCCNC(C)=O)C(=O)N[C@H](C(=O)O)C(C)C)[C@@H](C)O [PTEN_Ac]: 0.018
- CC[C@H](C)[C@H](NC(=O)[C@H](CCC(N)=O)NC(=O)[C@@H](NC(=O)[C@H](Cc1c[nH]cn1)NC(=O)[C@H](CCC(N)=O)NC(=O)[C@H](CC(=O)O)NC(=O)[C@H](CCC(=O)O)NC(=O)[C@H](CC(=O)O)NC(=O)[C@H](Cc1ccccc1)NC(=O)[C@@H]1CCCN1C(=O)CCC(=O)NCCCOCCOCCOCCCNC(=O)CCCC[C@@H]1SC[C@@H]2NC(=O)N[C@@H]21)[C@@H](C)O)C(=O)N[C@H](C(=O)N[C@@H](CCCCN)C(=O)N[C@H](C(=O)O)C(C)C)[C@@H](C)O [PTEN_13] ({X1-Suc}-PFDEDQHTQITKV-OH): -0.092

###

Tested on: 266 human PDZ domains (PDZome)
procedure-summary: Holdup assay (chromatographic retention, PDZome-binding profile, BI)
Design: key: binding intensity: 0.00 = no binding, 1.00 = maximal binding
measurement-context: PDZ domain MPDZ-2
*1 amine or outer side, *2 acyl side, *3 side chain or, on linkers, in order; H or OH if unused. Where a SMILES comes first, the peptide text is derived from it. The star is where a group is joined. X1 = O=C(CCCC[C@@H]1SC[C@@H]2NC(=O)N[C@@H]21)NCCCOCCOCCOCCCN*; Suc = O=C(CCC(=O)[*:2])[*:1]
Below, each entry is listed with its recorded BI.
attribute-measured: BI

* CC[C@H](C)[C@H](NC(=O)[C@H](CCC(N)=O)NC(=O)[C@@H](NC(=O)[C@H](Cc1c[nH]cn1)NC(=O)[C@H](CCC(N)=O)NC(=O)[C@H](CC(=O)O)NC(=O)[C@H](CCC(=O)O)NC(=O)[C@H](CC(=O)O)NC(=O)CCC(=O)NCCCOCCOCCOCCCNC(=O)CCCC[C@@H]1SC[C@@H]2NC(=O)N[C@@H]21)[C@@H](C)O)C(=O)N[C@H](C(=O)N[C@@H](CCCCN)C(=O)N[C@H](C(=O)O)C(C)C)[C@@H](C)O | -0.043
* CC[C@H](C)[C@H](NC(=O)[C@H](CCC(N)=O)NC(=O)[C@@H](NC(=O)[C@H](Cc1c[nH]cn1)NC(=O)[C@H](CCC(N)=O)NC(=O)[C@H](CC(=O)O)NC(=O)[C@H](CCC(=O)O)NC(=O)[C@H](CC(=O)O)NC(=O)CCC(=O)NCCCOCCOCCOCCCNC(=O)CCCC[C@@H]1SC[C@@H]2NC(=O)N[C@@H]21)[C@@H](C)O)C(=O)N[C@H](C(=O)N[C@@H](CCCCNC(C)=O)C(=O)N[C@H](C(=O)O)C(C)C)[C@@H](C)O | 0.353
* CC[C@H](C)[C@H](NC(=O)[C@H](CCC(N)=O)NC(=O)[C@@H](NC(=O)[C@H](Cc1c[nH]cn1)NC(=O)[C@H](CCC(N)=O)NC(=O)[C@H](CC(=O)O)NC(=O)[C@H](CCC(=O)O)NC(=O)[C@H](CC(=O)O)NC(=O)CCC(=O)NCCCOCCOCCOCCCNC(=O)CCCC[C@@H]1SC[C@@H]2NC(=O)N[C@@H]21)[C@@H](C)O)C(=O)N[C@H](C(=O)N[C@@H](CCCNC(=N)N)C(=O)N[C@H](C(=O)O)C(C)C)[C@@H](C)O [PTEN_KR] ({X1-Suc}-DEDQHTQITRV-OH) | 0.021
